- experimental protocol: In vivo pharmacokinetics after a single topical treatment of etilevodopa 10% in Long Evans rat eyes
- assay conditions: blood, single topical etilevodopa 10%, noncompartmental analysis
value type: AUC0→∞ (ng·h/mL)

{"chem smiles": "CCOC(=O)[C@@H](N)Cc1ccc(O)c(O)c1", "display unit": "ng·h/mL", "observed measurement": 11.2}
